- Test System: Neu5Ac(a2-8)Neu5Ac(a2-8)Neu5Ac(a2-3)[Gal(b1-3)GalNAc(b1-4)]Gal(b1-4)Glc
- Test: glycan array binding signal (z-score within array); higher = stronger binding
- Test Settings: glycan notation: IUPAC condensed, linker removed
Only a selection was taken, and the strongest signals are over-represented in it overall.
Please mark met if the recorded glycan array binding signal (z-score) is equal to or greater than -0.09, and not met if it falls below.

QUERY: Kindly determine if glycan array binding signal (z-score) recorded for Nc3LysM (protein) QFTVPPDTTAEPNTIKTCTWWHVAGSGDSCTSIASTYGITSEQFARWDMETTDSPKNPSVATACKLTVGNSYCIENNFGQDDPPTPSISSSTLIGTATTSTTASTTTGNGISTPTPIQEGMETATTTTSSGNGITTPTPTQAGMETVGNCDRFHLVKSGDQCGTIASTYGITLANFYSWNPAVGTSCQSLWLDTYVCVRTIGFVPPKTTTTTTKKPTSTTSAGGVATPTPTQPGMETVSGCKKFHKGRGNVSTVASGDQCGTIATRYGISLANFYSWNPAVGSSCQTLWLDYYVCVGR is above or exactly -0.09.
RESULT: met

QUERY: Kindly determine if glycan array binding signal (z-score) recorded for MPA (Maclura pomifera), P18674 (protein) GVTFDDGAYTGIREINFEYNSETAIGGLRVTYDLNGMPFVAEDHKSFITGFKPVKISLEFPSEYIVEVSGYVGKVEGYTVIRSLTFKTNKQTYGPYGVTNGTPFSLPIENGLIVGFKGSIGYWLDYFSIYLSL is above or exactly -0.09.
RESULT: met

QUERY: Kindly determine if glycan array binding signal (z-score) recorded for ECA (Erythrina cristagalli), P83410 (protein) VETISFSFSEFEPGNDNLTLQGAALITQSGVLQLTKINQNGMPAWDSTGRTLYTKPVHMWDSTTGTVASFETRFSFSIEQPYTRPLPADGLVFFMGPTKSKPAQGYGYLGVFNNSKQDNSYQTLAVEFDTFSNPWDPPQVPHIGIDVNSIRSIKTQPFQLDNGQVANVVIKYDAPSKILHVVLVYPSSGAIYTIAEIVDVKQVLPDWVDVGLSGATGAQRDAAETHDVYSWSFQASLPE is above or exactly -0.09.
RESULT: met

QUERY: Kindly determine if glycan array binding signal (z-score) recorded for Clrb (Mus musculus) (protein) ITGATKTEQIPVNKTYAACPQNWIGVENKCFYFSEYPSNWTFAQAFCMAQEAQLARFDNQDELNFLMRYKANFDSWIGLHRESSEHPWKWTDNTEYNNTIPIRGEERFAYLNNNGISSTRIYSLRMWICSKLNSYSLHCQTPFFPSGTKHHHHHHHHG is above or exactly -0.09.
RESULT: not met

QUERY: Kindly determine if glycan array binding signal (z-score) recorded for CM2 (Cordyceps militaris) (protein) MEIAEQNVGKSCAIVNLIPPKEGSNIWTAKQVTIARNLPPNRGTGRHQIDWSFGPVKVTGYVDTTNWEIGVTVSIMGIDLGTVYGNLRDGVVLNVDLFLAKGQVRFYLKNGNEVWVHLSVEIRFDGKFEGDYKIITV is above or exactly -0.09.
RESULT: not met

QUERY: Kindly determine if glycan array binding signal (z-score) recorded for OGAA (protein) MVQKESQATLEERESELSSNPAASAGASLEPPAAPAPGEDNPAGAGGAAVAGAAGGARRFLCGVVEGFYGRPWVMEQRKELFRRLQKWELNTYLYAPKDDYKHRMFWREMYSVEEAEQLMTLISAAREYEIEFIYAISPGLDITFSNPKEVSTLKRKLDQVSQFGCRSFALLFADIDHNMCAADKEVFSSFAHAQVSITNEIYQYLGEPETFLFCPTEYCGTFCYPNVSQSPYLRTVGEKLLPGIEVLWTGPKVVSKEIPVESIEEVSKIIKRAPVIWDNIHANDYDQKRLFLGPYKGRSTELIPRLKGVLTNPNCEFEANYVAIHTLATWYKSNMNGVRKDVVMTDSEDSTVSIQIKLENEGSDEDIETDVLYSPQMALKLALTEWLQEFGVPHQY is above or exactly -0.09.
RESULT: not met
